Data credit: ChEMBL document CHEMBL1201862

# System: T47D
# protocol notes: NCI tumour cell line growth inhibition, 48 h
Activity calls are given as the source filed them. Cut-off read from the data, not from the text of the source: active = GI50 up to about 1.1 µM and inactive = higher.
Result category, one only: y for active, n for inactive

Observe how each entry below is paired with its result.
• Cc1c2c(Cl)c3c(c(Cl)c2c(C)c2c(Cl)c4c(c(Cl)c12)C(c1ccccc1)(c1ccccc1)C4(c1ccccc1)c1ccccc1)C(c1ccccc1)(c1ccccc1)C3(c1ccccc1)c1ccccc1 = n
• Cc1ccc2nc(-c3nccn3C)cc(C(=O)NC(C)CN(C)C)c2c1 (stereo not drawn) = n
• CC1CC[C@@]2(OC1)OC1C[C@H]3[C@@H]4CC=C5C[C@@H](OC6OC(CO)C(OC7OC(CO)C(O)C(O)C7O)C(O)C6OC6OC(C)C(O)C(O)C6O)CC[C@]5(C)[C@H]4CC[C@]3(C)C1[C@@H]2C (stereo partly drawn) = y
• Brc1ccc2c(-c3csc(-c4c[nH]c5ccccc45)n3)c[nH]c2c1 = n
• C=C1CC2[C@H](C)C(=O)CCC2(C)C2=C1C1CCC(C(C)CCC(=C)C(C)C(=O)O)C1(C)CC2=O (stereo partly drawn) = n

Asked: Tell me the assay call for Cc1ccc(C(=O)C#Cc2cn(C3CC(O)C(CO)O3)c(=O)[nH]c2=O)cc1 (stereo not drawn) please.
Given back: n

Asked: What classification did `O=C(O)CCC(=O)c1ccc2ccc3cccc4ccc1c2c34` end up with in this test?
Given back: n

Asked: How did this test come out for Cc1cccc(C)c1NC(=O)C(Cc1c[nH]c2ccccc12)NC(=O)OCc1ccccc1 (stereo not drawn) ?
Given back: n

Asked: Status in this test for `COc1ccccc1CNC(=O)[C@H](Cc1ccc(O)cn1)NC(C)=O` ?
Given back: n

* * *

# Tested on: UACC-62
# protocol notes: NCI tumour cell line growth inhibition, 48 h
The source made the active and inactive calls. Cut-off read from the data, not from the text of the source: active = GI50 up to about 1.1 µM and inactive = higher.
assay readout: GI50

- COC(=O)C12C3C4C5C3(C#N)C1C5(C(=O)OC)C42C(=O)N(C(C)C)C(C)C (stereo not given): > 100 µM (inactive)
- O=C(Nc1ccc(Cl)cc1)c1cc2cc(/N=N/c3ccccc3Cl)ccc2oc1=O: 8.39 µM (inactive)
- CC(CN1CC(=O)NC(=O)C1)N1CC(=O)NC(=O)C1 (stereo not given): 340 µM (inactive)

Please state, for each entry, its recorded GI50.
1. COc1ccccc1Nc1nc2c([nH]1)c(=O)n(C)c(=O)n2C
2. CC12CCCC3(CC(=O)C(C)(C)C3C(=O)C1)C2 (stereo not given)

Given back:
1. > 10 µM (inactive)
2. > 100 µM (inactive)

Return reported GI50 values for all items listed beneath this line.
1. CCCCCCCCCCOCCOCCOCCOCCCCC(O)CCCCCCCC1=C[C@H](C)OC1=O (stereo not given in full)
2. CN(/N=C/c1ccccn1)C1=NCCN1
3. O=S(=O)(C1=CC(S(=O)(=O)c2ccccc2)CN(Cc2ccccc2)C1c1cccc2ccccc12)c1ccccc1 (stereo not given)
4. CCOC(=O)C=C1CCN(C(=O)c2ccccc2)CC1
5. CCOC(=O)c1nc2cc(C(F)(F)F)ccc2nc1Nc1ccc(C(=O)NC(C(=O)OCC)C(=O)OCC)cc1

Given back:
13.2 µM (inactive)
> 100 µM (inactive)
> 69 µM (inactive)
> 100 µM (inactive)
11.5 µM (inactive)

* * *

# Tested on: SF-539
# protocol notes: NCI tumour cell line growth inhibition, 48 h
Calls of active or inactive are those of the source. No stated cut-off is given here; in the data, active = GI50 up to about 1.1 µM and inactive = higher.
API: response.call in active, inactive

Solved entries:
- CN(C)[C@@H]1C(O)=C(C(=O)NCNc2nc3[nH]nnc3c(=O)[nH]2)C(=O)[C@@]2(O)C(O)=C3C(=O)c4c(O)cccc4[C@@](C)(O)[C@H]3C[C@@H]12: active
- O=C(Nc1ccn(CCI)c(=O)n1)c1ccccc1: inactive
- CC(=O)c1c2c(cc3c1CC1(C3)Cc3ccc4c(c3C1=O)CCC4)CCC2 (stereo not drawn): inactive
- Cc1ccc(C)c(NC(=O)CCC(=O)CC(=O)C(C)(C)C)c1: inactive
- Cc1c2c(Cl)c3c(c(Cl)c2c(C)c2c(Cl)c4c(c(Cl)c12)C(c1ccccc1)(c1ccccc1)C4(c1ccccc1)c1ccccc1)C(c1ccccc1)(c1ccccc1)C3(c1ccccc1)c1ccccc1: inactive

Asked: Please share the test call associated with CCOC(=O)C1=C(C)NC(=O)N([N+](=O)[O-])C1c1ccccc1C(F)(F)F (stereo not drawn) .
Given back: inactive

Asked: What classification did Cc1ccc(S(=O)(=O)N(CC(O)COc2ccccc2)c2c(F)cccc2F)cc1 (stereo not drawn) end up with in this test?
Given back: inactive

Asked: What did the test return for `CN(C)C(=S)/N=c1\ss/c(=N\C(=S)N(C)C)n1-c1ccc(Cl)c(Cl)c1` ?
Given back: inactive

* * *

# System: HCT-15
# protocol notes: NCI tumour cell line growth inhibition, 48 h
Please use 1 (yes) for GI50 under 30 µM and 0 (no) for everything else, ties included.

Would you please look over these solved cases?
• O=C1CN(c2ccccc2)Cc2nc(Cl)ccc2N1 = 0 (no)
• S=c1sc2c(s1)SC(c1ccccc1)CS2 (centres undefined) = 0 (no)
• O=C1c2cc3c(cc2CC1Cc1ccc2c(c1)CCC2)CCC3 (centres undefined) = 0 (no)

Asked: Does `O=C(O)Cn1c(=O)[nH]c(=O)c2c1ncn2Cc1ccccc1` have GI50 strictly under 30 µM?
Given back: 0 (no)

Asked: Given Cc1ccc(/N=N/c2c(C)c(C#N)c(=S)n(C3OC(CO)C(O)C(O)C3O)c2-c2ccccc2)cc1 (centres undefined) , is recorded GI50 strictly lower than 30 µM?
Given back: 1 (yes)

Asked: Lab note: confirm whether the reported GI50 for this compound is below 30 µM, equality not counting. compound: `COc1ccc2c(c1)CCc1c-2nc2cc3c(cc2c1O)OCO3`
Given back: 0 (no)

* * *

# Test system: KM-20L2
# protocol notes: NCI tumour cell line growth inhibition, 48 h
Activity calls are given as the source filed them. Cut-off read from the data, not from the text of the source: active = GI50 up to about 1.1 µM and inactive = higher.
assay readout: GI50

Use these answered entries as a reference point.
• CC1(C)OC2C(O1)[C@H]1OC(C(Cl)(Cl)Cl)=N[C@H]1C(I)[C@H]2N1C(=O)c2ccccc2C1=O (some centres not stated) = 60.4 µM (inactive)
• O=C(O)Cn1c(=O)[nH]c(=O)c2[nH]cnc21 = > 100 µM (inactive)
• O=C1OC(c2ccccc2)=N/C1=C\c1ccc2ccccc2c1 = > 100 µM (inactive)
• O=C(O)c1oc2cccc3c2c1CCC3 = > 10 µM (inactive)
• COC1/C(=C\C(=O)OC(C)(C)C)c2ccccc2N1C(C)=O (configuration not stated) = > 100 µM (inactive)

Quick one: give me GI50 for each item below, same order please.
1. CC1CCSC(N(C(=O)N(C)c2ccccc2)c2ccccc2)=N1 (configuration not stated)
2. N=C(N)NNC(=O)CCn1[nH]c(=O)c(Cl)c(Cl)c1=O

Given back:
> 100 µM (inactive)
> 100 µM (inactive)

* * *

# Test system: HOP-92
# protocol notes: NCI tumour cell line growth inhibition, 48 h
Activity calls are given as the source filed them. No stated cut-off is given here; in the data, active = GI50 up to about 1.1 µM and inactive = higher.
Your answer must be one of the following: active, inactive

The following compounds have reported results that may help.
• N=C1C(=N)c2ccccc2-c2ccccc21 = inactive
• NC1CCC(c2cc3ccccc3s2)(N2CCCCC2)CC1 (centres undefined) = active

Asked: Given NC(=O)NC1C(C(=O)O)N(Cc2ccccc2)C(=O)N1Cc1ccccc1 (centres undefined) , state the outcome it received in this test.
Given back: inactive

Asked: Each compound tested received a call. Report the one for `Oc1cccc(-c2cn3cc(C(F)(F)F)ccc3n2)c1` .
Given back: inactive

Asked: State the result this test recorded for O=C(Nc1cccc([N+](=O)[O-])c1)C(=O)C(C(=O)c1ccccc1F)C1OC(=O)C2C=CC=CC21 (centres undefined) .
Given back: inactive

Asked: # fetch the recorded call for `COc1ccc(-c2cc(C3CC3)nc(SCC(=O)O)c2C#N)cc1` here
Given back: inactive

Asked: For `COc1nc2sc3c(c2c(=O)n1CCCSSCCCn1c(OC)nc2sc4c(c2c1=O)CCCC4)CCCC3` , which call appears in the assay record?
Given back: inactive

Asked: Any idea what this test logged for `O=C1[C@@H]2C(c3ccncc3)=NO[C@@H]2C(=O)N1c1ccc(Cc2ccc(N3C(=O)[C@H]4C(c5ccncc5)=NO[C@H]4C3=O)cc2)cc1` ?
Given back: inactive

Asked: Outcome? O=C1C=CC2(O)OCC3C=C4O[C@@H]5OC6(CCCCC6)O[C@@H]5C4[C@@H]2[C@@H]13 (some centres undefined)
Given back: inactive

* * *

# Tested on: OVCAR-5
# protocol notes: NCI tumour cell line growth inhibition, 48 h
Activity calls are given as the source filed them. No stated cut-off is given here; in the data, active = GI50 up to about 1.1 µM and inactive = higher.
assay readout: GI50

Some molecules with known GI50 results, for comparison:
* O=C1/C(=C/c2ccc(O)c(CN3CCCCC3)c2)CCC/C1=C\c1ccc(O)c(CN2CCCCC2)c1 | 29.6 µM (inactive)
* O=C(NCCCN(CCCCN(CCCNC(=O)C(F)(F)F)Cc1ccc2ccccc2c1)Cc1ccc2ccccc2c1)C(F)(F)F | > 100 µM (inactive)
* COc1ccc2c(c1OC)C(=O)N/C2=C\c1c(CCN(C)C)cc2c(c1OC)OCO2 | > 100 µM (inactive)
* COP(=O)(OC)C1=c2c(C)noc2=C2C=COC2C1=O (centres undefined) | > 100 µM (inactive)
* O=[N+]([O-])c1ccc2[nH]ncc2c1Cl | 23.6 µM (inactive)
* CC12CC3OC(=O)C1COC14OC5(C2C1=O)C(O)(CCC1C4CC(O)C2(O)CC=CC(=O)C12C)C(=O)OC35C (centres undefined) | > 100 µM (inactive)

Required: GI50, one value per molecule below.
1. C[C@H]1C2Cc3cc(N)ccc3[C@@]1(C)CCN2CCc1ccccc1
2. O=C1/C(=C\c2ccc(-c3ccc(Cl)cc3Cl)o2)SC2NC(COc3ccc(Cl)cc3)=NN12 (centres undefined)
3. COc1cc([C@@H]2c3cc4c(cc3[C@@H](NCCCN(C)C)[C@H]3COC(=O)[C@H]23)OCO4)cc(OC)c1O

Given back:
1: 74.6 µM (inactive); 2: > 100 µM (inactive); 3: 1.34 µM (inactive)
